// provenance: ChEMBL document CHEMBL1147165

- study_target: Adrenergic receptors; alpha-1 A & B (Homo sapiens) (UniProt P35348+P35368)
- Sequence (P35368 whole entry, looked up, one chain of several): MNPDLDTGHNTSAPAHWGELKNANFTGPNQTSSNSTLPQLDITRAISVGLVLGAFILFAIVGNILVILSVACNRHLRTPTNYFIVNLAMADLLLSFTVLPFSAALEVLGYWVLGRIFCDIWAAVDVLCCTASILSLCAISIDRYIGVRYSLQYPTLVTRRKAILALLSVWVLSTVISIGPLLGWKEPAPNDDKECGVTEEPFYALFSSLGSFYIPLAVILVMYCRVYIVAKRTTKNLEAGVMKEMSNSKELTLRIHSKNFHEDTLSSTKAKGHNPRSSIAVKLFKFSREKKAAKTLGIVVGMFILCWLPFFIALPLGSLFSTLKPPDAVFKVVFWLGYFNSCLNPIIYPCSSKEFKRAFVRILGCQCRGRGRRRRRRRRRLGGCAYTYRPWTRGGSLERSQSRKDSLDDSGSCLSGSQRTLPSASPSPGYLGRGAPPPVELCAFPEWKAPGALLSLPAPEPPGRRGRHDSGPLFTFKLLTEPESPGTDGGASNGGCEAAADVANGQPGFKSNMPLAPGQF
- test_method_notes: Selectivity ratio of pKi for human adrenergic alpha-1a receptor to pKi for human adrenergic alpha-1b receptor
- Assay type: protein assay
// 0.0 strictly below 10 in Selectivity ratio; 1.0 otherwise

Observe how each entry below is paired with its result.
[[record]]
query_smiles = "COc1cc2nc(N3CCN(C(=O)c4ccc[nH]4)[C@H]4CCCC[C@H]43)nc(N)c2cc1OC"
label = 0.0

[[record]]
query_smiles = "COc1cc2nc(N3CCN(C(=O)c4cccs4)[C@H]4CCCC[C@H]43)nc(N)c2cc1OC"
label = 1.0

[[record]]
query_smiles = "COc1cc2nc(N3CCN(C(=O)c4ccc(C)o4)[C@H]4CCCC[C@H]43)nc(N)c2cc1OC"
label = 1.0

[[record]]
query_smiles = "COc1ccc(C(=O)N2CCN(c3nc(N)c4cc(OC)c(OC)cc4n3)[C@@H]3CCCC[C@@H]32)o1"
label = 1.0


Textbook exercise: given the entry COc1cc2nc(N3CCN(C(=O)c4ccc(C(C)=O)o4)[C@H]4CCCC[C@H]43)nc(N)c2cc1OC , state whether its Selectivity ratio is greater than or equal to 10.
1.0

Textbook exercise: given the entry COc1cc2nc(N3CCN(C(=O)c4ccccc4)[C@H]4CCCC[C@H]43)nc(N)c2cc1OC , state whether its Selectivity ratio is greater than or equal to 10.
0.0

Textbook exercise: given the entry COc1cc2nc(N3CCN(C(=O)c4ccc(Br)o4)[C@H]4CCCC[C@H]43)nc(N)c2cc1OC , state whether its Selectivity ratio is greater than or equal to 10.
1.0

Textbook exercise: given the entry COc1cc2nc(N3CCN(C(=O)c4ccccn4)[C@H]4CCCC[C@H]43)nc(N)c2cc1OC , state whether its Selectivity ratio is greater than or equal to 10.
0.0

* * *

The following are reported Ki results, target or system UniProt P25100.
Quick reminder: number only, in nM, skip the unit.

Example entries begin here.
[[record]]
query_smiles = "COc1ccc(C(=O)N2CCN(c3nc(N)c4cc(OC)c(OC)cc4n3)[C@@H]3CCCC[C@@H]32)o1"
test_result = 3.63

[[record]]
query_smiles = "COc1cc2nc(N3CCN(C(=O)c4ccco4)[C@H]4CCCC[C@H]43)nc(N)c2cc1OC"
test_result = 3.24

[[record]]
query_smiles = "COc1cc2nc(N3CCN(C(=O)c4ccccn4)[C@H]4CCCC[C@H]43)nc(N)c2cc1OC"
test_result = 26.9


Now consider the entry below.
The compound COc1cc2nc(N3CCN(C(=O)c4ccc(C(C)=O)o4)[C@H]4CCCC[C@H]43)nc(N)c2cc1OC on UniProt P25100: Ki was 7.41

* * *

- study_target: UniProtKB P43140
- test_method_notes: Antagonist activity against adrenergic alpha-1A receptor in rat prostatic vas deferens assessed as inhibition of noradrenaline-induced contraction
- Type: functional, tissue-based
result_type: pKb
Reply with just the number.

Example entries begin here.
[[record]]
query_smiles = "COc1cc2nc(N3CCN(C(=O)c4ccc[nH]4)[C@H]4CCCC[C@H]43)nc(N)c2cc1OC"
test_result = 7.06

[[record]]
query_smiles = "COc1cc2nc(N3CCN(C(=O)c4cccs4)[C@H]4CCCC[C@H]43)nc(N)c2cc1OC"
test_result = 7.44

[[record]]
query_smiles = "COc1cc2nc(N3CCN(C(=O)c4ccc(C(C)=O)o4)[C@H]4CCCC[C@H]43)nc(N)c2cc1OC"
test_result = 7.05

[[record]]
query_smiles = "COc1cc2nc(N3CCN(C(=O)c4ccccn4)[C@H]4CCCC[C@H]43)nc(N)c2cc1OC"
test_result = 7.04


Now consider the entry below.
Reported pKb for COc1cc2nc(N3CCN(C(=O)c4ccc(Br)o4)[C@H]4CCCC[C@H]43)nc(N)c2cc1OC was 7.53

* * *

- study_target: Alpha adrenergic receptor (1a and 1d) (Homo sapiens) (UniProt P35348+P25100)
- Sequence (P25100 whole entry, looked up, one chain of several): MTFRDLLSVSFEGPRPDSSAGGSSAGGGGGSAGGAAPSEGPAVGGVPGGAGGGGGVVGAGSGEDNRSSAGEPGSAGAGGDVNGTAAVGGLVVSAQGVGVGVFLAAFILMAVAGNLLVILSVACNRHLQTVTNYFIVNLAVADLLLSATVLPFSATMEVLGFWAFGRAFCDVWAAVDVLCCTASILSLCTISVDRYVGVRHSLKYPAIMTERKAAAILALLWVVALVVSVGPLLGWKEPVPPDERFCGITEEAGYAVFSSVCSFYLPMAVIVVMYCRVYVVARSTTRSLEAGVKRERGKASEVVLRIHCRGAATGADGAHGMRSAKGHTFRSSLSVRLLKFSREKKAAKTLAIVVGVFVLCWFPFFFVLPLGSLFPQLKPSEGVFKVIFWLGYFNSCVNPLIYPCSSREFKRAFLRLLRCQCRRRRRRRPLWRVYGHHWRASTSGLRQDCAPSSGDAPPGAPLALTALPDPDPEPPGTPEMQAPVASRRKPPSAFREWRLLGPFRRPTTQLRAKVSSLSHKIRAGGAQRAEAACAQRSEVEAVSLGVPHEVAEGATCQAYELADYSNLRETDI
- test_method_notes: Selectivity ratio of pKi for human adrenergic alpha-1a receptor to pKi for human adrenergic alpha1d receptor
- Type: protein assay
One threshold, 5, splits the recorded Selectivity ratio values: lower ones are condition met, equal or higher ones are condition not met.

Observe how each entry below is paired with its result.
[[record]]
query_smiles = "COc1cc2nc(N3CCN(C(=O)c4cccs4)[C@H]4CCCC[C@H]43)nc(N)c2cc1OC"
label = "condition met"

[[record]]
query_smiles = "COc1cc2nc(N3CCN(C(=O)c4ccccc4)[C@H]4CCCC[C@H]43)nc(N)c2cc1OC"
label = "condition met"

[[record]]
query_smiles = "COc1cc2nc(N3CCN(C(=O)c4ccccn4)[C@H]4CCCC[C@H]43)nc(N)c2cc1OC"
label = "condition met"

[[record]]
query_smiles = "COc1cc2nc(N3CCN(C(=O)c4ccc[nH]4)[C@H]4CCCC[C@H]43)nc(N)c2cc1OC"
label = "condition not met"

[[record]]
query_smiles = "COc1ccc(C(=O)N2CCN(c3nc(N)c4cc(OC)c(OC)cc4n3)[C@@H]3CCCC[C@@H]32)o1"
label = "condition not met"

[[record]]
query_smiles = "COc1cc2nc(N3CCN(C(=O)c4ccc(Br)o4)[C@H]4CCCC[C@H]43)nc(N)c2cc1OC"
label = "condition met"


With those in mind, consider the next compound.
Lab log: compare recorded Selectivity ratio with 5; is it strictly lower for COc1cc2nc(N3CCN(C(=O)c4ccc(C(C)=O)o4)[C@H]4CCCC[C@H]43)nc(N)c2cc1OC ?
condition met

* * *

- Species on record: Homo sapiens
- test_method_notes: Selectivity ratio of pKi for human adrenergic alpha-1d receptor to pKi for human adrenergic alpha-1b receptor
// 0 strictly below 5 in Selectivity ratio; 1 otherwise

Observe how each entry below is paired with its result.
[[record]]
query_smiles = "COc1cc2nc(N3CCN(C(=O)c4ccc[nH]4)[C@H]4CCCC[C@H]43)nc(N)c2cc1OC"
label = 0

[[record]]
query_smiles = "COc1cc2nc(N3CCN(C(=O)c4ccccc4)[C@H]4CCCC[C@H]43)nc(N)c2cc1OC"
label = 1

[[record]]
query_smiles = "COc1ccc(C(=O)N2CCN(c3nc(N)c4cc(OC)c(OC)cc4n3)[C@@H]3CCCC[C@@H]32)o1"
label = 0

[[record]]
query_smiles = "COc1cc2nc(N3CCN(C(=O)c4cccs4)[C@H]4CCCC[C@H]43)nc(N)c2cc1OC"
label = 1


With those in mind, consider the next compound.
Textbook exercise: given the entry COc1cc2nc(N3CCN(C(=O)c4ccc(C)o4)[C@H]4CCCC[C@H]43)nc(N)c2cc1OC , state whether its Selectivity ratio is greater than or equal to 5.
1

* * *

- study_target: Alpha adrenergic receptor 1A and 1B (Rattus norvegicus) (UniProt P15823+P43140)
- Sequence (P15823 whole entry, looked up): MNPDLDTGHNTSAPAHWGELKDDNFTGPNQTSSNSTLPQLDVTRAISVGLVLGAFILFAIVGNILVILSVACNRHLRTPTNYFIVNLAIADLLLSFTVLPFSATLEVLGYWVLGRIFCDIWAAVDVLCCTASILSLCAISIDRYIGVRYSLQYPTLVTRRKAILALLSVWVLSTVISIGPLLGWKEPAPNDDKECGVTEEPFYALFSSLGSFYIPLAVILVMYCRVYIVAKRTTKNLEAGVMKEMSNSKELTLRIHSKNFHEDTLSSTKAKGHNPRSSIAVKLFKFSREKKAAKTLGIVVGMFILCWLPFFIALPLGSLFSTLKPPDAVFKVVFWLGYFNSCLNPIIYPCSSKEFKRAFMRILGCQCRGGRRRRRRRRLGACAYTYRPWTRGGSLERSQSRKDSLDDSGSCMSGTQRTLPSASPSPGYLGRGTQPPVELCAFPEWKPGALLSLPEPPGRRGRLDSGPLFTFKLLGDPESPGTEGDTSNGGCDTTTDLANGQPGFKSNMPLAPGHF
- Sequence (P43140 whole entry, looked up): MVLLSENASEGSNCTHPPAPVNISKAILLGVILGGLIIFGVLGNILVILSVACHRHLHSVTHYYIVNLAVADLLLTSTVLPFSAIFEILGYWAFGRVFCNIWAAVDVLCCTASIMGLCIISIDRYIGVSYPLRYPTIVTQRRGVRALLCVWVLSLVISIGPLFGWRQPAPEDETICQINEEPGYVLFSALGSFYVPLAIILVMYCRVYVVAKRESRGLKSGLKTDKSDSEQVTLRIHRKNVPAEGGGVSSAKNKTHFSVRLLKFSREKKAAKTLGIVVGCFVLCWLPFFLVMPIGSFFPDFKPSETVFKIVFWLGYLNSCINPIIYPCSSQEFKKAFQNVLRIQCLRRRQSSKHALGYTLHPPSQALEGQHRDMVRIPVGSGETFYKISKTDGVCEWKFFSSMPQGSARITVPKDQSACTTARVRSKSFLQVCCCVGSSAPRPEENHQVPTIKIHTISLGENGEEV
- test_method_notes: Selectivity ratio for rat adrenergic alpha-1A receptor over rat adrenergic Alpha-1B receptor
- Format: functional
Listed here are compounds together with their documented Selectivity ratio.
Reply with just the number.

Example entries begin here.
[[record]]
query_smiles = "COc1cc2nc(N3CCN(C(=O)c4ccc(C(C)=O)o4)[C@H]4CCCC[C@H]43)nc(N)c2cc1OC"
study_target = "Alpha adrenergic receptor 1A and 1B (Rattus norvegicus) (UniProt P15823+P43140)"
test_result = 12

[[record]]
query_smiles = "COc1cc2nc(N3CCN(C(=O)c4ccc(C)o4)[C@H]4CCCC[C@H]43)nc(N)c2cc1OC"
study_target = "Alpha adrenergic receptor 1A and 1B (Rattus norvegicus) (UniProt P15823+P43140)"
test_result = 148

[[record]]
query_smiles = "COc1cc2nc(N3CCN(C(=O)c4ccccn4)[C@H]4CCCC[C@H]43)nc(N)c2cc1OC"
study_target = "Alpha adrenergic receptor 1A and 1B (Rattus norvegicus) (UniProt P15823+P43140)"
test_result = 40

[[record]]
query_smiles = "COc1cc2nc(N3CCN(C(=O)c4ccc[nH]4)[C@H]4CCCC[C@H]43)nc(N)c2cc1OC"
study_target = "Alpha adrenergic receptor 1A and 1B (Rattus norvegicus) (UniProt P15823+P43140)"
test_result = 10


Reported Selectivity ratio for COc1ccc(C(=O)N2CCN(c3nc(N)c4cc(OC)c(OC)cc4n3)[C@@H]3CCCC[C@@H]32)o1 was 45

Reported Selectivity ratio for COc1cc2nc(N3CCN(C(=O)c4ccccc4)[C@H]4CCCC[C@H]43)nc(N)c2cc1OC was 21

Reported Selectivity ratio for COc1cc2nc(N3CCN(C(=O)c4ccc(Br)o4)[C@H]4CCCC[C@H]43)nc(N)c2cc1OC was 9

Reported Selectivity ratio for COc1cc2nc(N3CCN(C(=O)c4cccs4)[C@H]4CCCC[C@H]43)nc(N)c2cc1OC was 22

* * *

Target protein (sequence): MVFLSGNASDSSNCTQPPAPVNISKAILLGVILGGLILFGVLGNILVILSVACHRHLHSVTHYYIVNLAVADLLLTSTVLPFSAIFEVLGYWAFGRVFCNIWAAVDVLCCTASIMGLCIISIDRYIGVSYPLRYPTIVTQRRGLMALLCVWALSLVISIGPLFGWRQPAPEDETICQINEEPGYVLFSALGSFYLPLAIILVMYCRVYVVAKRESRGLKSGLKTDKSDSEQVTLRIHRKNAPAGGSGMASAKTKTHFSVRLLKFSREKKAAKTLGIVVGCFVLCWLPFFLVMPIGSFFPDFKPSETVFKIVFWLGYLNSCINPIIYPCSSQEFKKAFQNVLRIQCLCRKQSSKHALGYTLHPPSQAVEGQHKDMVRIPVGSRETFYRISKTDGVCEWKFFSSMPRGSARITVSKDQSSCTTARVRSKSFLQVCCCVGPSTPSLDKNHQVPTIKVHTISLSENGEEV
Listed here are compounds together with their documented pKi.
FYI, pKi means -log10 of a concentration in mol per litre.

Example entries begin here.
[[record]]
query_smiles = "COc1ccc(C(=O)N2CCN(c3nc(N)c4cc(OC)c(OC)cc4n3)[C@@H]3CCCC[C@@H]32)o1"
test_result = 7.56

[[record]]
query_smiles = "COc1cc2nc(N3CCN(C(=O)c4ccco4)[C@H]4CCCC[C@H]43)nc(N)c2cc1OC"
test_result = 7.91

[[record]]
query_smiles = "COc1cc2nc(N3CCN(C(=O)c4ccc(Br)o4)[C@H]4CCCC[C@H]43)nc(N)c2cc1OC"
test_result = 8.46


Reported pKi for COc1cc2nc(N3CCN(C(=O)c4cccs4)[C@H]4CCCC[C@H]43)nc(N)c2cc1OC was 8.37

Reported pKi for COc1cc2nc(N3CCN(C(=O)c4ccc(C(C)=O)o4)[C@H]4CCCC[C@H]43)nc(N)c2cc1OC was 7.59
